- target-entity: Integrin alpha-IIb/beta-3 (Homo sapiens, UniProt P05106+P08514)
- Sequence (P05106 27-788 limits assumed): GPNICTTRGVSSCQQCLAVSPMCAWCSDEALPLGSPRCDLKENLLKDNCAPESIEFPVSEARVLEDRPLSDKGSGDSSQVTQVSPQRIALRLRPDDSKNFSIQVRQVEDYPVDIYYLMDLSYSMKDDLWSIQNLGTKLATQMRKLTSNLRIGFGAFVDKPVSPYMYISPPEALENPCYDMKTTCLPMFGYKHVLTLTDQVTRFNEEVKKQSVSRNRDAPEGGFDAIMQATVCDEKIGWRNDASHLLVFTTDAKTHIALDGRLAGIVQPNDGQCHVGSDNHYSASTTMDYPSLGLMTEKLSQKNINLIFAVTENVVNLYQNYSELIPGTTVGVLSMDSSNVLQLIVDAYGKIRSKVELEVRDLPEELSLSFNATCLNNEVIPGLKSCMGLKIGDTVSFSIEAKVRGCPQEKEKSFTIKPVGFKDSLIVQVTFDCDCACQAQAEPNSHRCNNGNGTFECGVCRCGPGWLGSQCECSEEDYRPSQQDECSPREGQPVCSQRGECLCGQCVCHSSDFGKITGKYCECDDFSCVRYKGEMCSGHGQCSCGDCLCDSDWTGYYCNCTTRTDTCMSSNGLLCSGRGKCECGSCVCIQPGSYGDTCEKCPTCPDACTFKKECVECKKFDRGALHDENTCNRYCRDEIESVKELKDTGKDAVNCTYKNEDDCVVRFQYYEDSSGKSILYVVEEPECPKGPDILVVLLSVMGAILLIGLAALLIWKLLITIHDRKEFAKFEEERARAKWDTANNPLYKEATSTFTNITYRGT
- Sequence (P08514 32-887 limits assumed): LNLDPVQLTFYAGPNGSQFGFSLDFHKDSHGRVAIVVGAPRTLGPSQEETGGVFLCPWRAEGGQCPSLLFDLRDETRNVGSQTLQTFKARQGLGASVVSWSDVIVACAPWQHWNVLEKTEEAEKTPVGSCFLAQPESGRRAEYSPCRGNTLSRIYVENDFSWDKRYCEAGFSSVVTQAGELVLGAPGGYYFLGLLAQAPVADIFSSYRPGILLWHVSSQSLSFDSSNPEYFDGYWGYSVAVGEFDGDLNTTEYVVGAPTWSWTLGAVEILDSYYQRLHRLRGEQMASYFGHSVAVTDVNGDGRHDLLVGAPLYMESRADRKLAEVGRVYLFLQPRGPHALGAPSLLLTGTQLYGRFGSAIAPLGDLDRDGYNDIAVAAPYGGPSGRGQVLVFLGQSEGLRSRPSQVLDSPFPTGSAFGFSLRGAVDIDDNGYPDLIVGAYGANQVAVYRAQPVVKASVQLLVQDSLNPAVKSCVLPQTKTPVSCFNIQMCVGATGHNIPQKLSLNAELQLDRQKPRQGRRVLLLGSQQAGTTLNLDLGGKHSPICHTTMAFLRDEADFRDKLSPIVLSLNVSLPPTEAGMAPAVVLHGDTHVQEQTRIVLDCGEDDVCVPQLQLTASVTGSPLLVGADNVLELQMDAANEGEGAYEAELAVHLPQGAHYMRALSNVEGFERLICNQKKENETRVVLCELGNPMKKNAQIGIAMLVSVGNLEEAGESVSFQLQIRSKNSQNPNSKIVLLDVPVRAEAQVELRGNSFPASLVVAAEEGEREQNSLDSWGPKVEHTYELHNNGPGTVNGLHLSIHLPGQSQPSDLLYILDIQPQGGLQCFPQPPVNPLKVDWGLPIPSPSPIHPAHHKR
- Sequence (P08514 891-1039 limits assumed): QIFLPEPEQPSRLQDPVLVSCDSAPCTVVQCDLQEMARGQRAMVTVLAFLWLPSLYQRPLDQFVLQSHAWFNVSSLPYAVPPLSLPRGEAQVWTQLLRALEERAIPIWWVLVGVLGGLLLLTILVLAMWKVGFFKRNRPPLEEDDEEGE
- assay-name: Inhibition of platelet glycoprotein alpha IIb beta-3 integrin in ELISA
Square brackets hold non-standard residues; d marks the D form. Peptide text beside a SMILES is read from it. Pen = CC(C)(S)[C@H](N)C(=O)O; Mpa = O=C(O)CCS
endpoint: IC50 (µM)

Completed entries (count: 2):
Challenge: Please give measured IC50 of the following entry: CC(C)(S)[C@H](NC(=O)[C@H](CCCN=C(N)N)NC(=O)[C@H](Cc1c[nH]c2ccccc12)NC(=O)[C@H](CC(=O)O)NC(=O)CNC(=O)[C@H](CCCN=C(N)N)NC(=O)CCS)C(N)=O ([Mpa]RGDWR[Pen]-NH2)
Response given: 0.12

Challenge: Please give measured IC50 of the following entry: N=C(N)c1ccc2[nH]c(C(=O)NCCCCCC(=O)O)cc2c1
Response given: 30

[I] N=C(N)c1ccc2cc(C(=O)NCCCCCCC(=O)O)[nH]c2c1
[II] N=C(N)c1cccc(NCC(=O)NCCCCCCC(=O)O)c1
[III] N=C(N)c1ccc2c(C(=O)NCCCCCCC(=O)O)c[nH]c2c1
Challenge: Put the compounds in ascending order of IC50. To answer, arrange all of the labels according to the requested order.
Response given: III, I, II
